Test system: OVCAR-3
protocol_details: NCI tumour cell line growth inhibition, 48 h
Active and inactive are the calls of the source. Cut-off read from the data, not from the text of the source: active = GI50 up to about 1.1 µM and inactive = higher.
Outcomes you can answer with include only these: TRUE for active, FALSE for inactive

>>> assigned_label("CCOC(=O)C(Cl)(Cl)/S(=N\\S(=O)(=O)c1ccccc1)NC(=O)c1ccccc1 (configuration not stated)")
"FALSE"

Would you mind telling me which call this test gave "O=C(O)COc1cc(-c2ccccc2)nc2ccc(F)cc12" ? FALSE

Status in this test for Nc1ncnc2c1ncn2C1OC(CSC(F)F)C(O)C1O (configuration not stated) ? FALSE

What is the recorded call for this molecule in the test? "C=CCN(c1cc(OC)c2[nH]c(C(=O)OCC)c(C)c2c1[N+](=O)[O-])S(C)(=O)=O" FALSE

Status in this test for COc1cc2c(cc1OC)C(=O)C(C1=C(SC(=N)N)C(=O)c3cc(OC)c(OC)cc31)C2 (configuration not stated) ? FALSE

Please share the test call associated with "CCOC(=O)C1=C(O)C(=O)c2cc(C)ccc2C1=O" . FALSE

What classification did "O=C1C2=Cc3ccccc3CCN2c2ccc([N+](=O)[O-])cc21" end up with in this test? FALSE

Identify the outcome logged in this assay for the molecule shown: "CCOc1cc(-c2nc3ccccn3c2/N=C/c2cc(Br)ccc2O)ccc1O" FALSE

Called result for "O=c1c2c3c(sc2nc2n1sc1nc4sc5c(c4c(=O)n12)CCCC5)CCCC3" FALSE

Give the logged outcome of this assay for the following molecule: O=C(CC1C(=O)Nc2ccccc2S1(=O)=O)Nc1cccc(Cl)c1 (configuration not stated) FALSE

How was CN1C2CCC1C(CO)C(=O)C2 (configuration not stated) classified in this test? FALSE

Measured values drawn from ChEMBL document CHEMBL1201862 for this set.
